# assay_procedure: Pharmacokinetics in SD rats
# recorded_conditions: 2.89 mpk Intravenous injection
quantity_kind: C0 (µM)
The reply should contain only the number, in µM.

Requested read-out: C0. Entry: `N#Cc1sc(-c2ccc(C(=O)O)c(O)c2)c2c1CCC(F)(F)C2` 96.6

* * *

# assay_procedure: Pharmacokinetics in SD rats
# recorded_conditions: 8.58 mpk Oral
quantity_kind: Cmax
Remember to quote the unit after the number.

What value of Cmax has been reported for the following molecule? `N#Cc1sc(-c2ccc(C(=O)O)c(O)c2)c2c1CCC(F)(F)C2` 27.5 µM

* * *

# assay_system: CYP2C19 (Homo sapiens (Human))
# Sequence (P33261 whole entry): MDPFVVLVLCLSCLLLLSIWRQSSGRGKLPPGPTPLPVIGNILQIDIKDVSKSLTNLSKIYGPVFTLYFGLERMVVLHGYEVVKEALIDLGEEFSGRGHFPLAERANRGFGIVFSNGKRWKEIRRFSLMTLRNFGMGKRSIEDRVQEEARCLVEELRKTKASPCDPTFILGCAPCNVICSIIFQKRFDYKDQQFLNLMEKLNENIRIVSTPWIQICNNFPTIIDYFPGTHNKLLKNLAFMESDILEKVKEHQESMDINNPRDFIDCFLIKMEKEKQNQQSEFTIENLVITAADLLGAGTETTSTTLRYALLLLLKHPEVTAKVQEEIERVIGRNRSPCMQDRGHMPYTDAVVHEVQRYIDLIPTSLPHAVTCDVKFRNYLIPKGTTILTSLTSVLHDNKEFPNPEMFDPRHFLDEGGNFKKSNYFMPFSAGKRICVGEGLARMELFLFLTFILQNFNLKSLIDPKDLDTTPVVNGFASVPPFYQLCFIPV
# assay_procedure: Cytochrome P450 isozyme inhibitory activity test, CYP2C19
# Type: in vitro ADME
# recorded_conditions: human liver microsomes; read-out: Cytochrome P450 isoenzyme IC50, CYP2C19
# Protocol: Cytochrome P450 Isozyme Inhibitory Activity Test The inhibitory activities of test compounds against different subtypes of human cytochrome P450 isoenzymes were determined. Preparing test compounds, standard inhibitor (100×final concentration) and mixed substrate working solutions; Microsomes (purchased from Corning Inc) frozen in −80° C. freezer was taken out and thawed. […]
quantity_kind: IC50

{"compound": "N#Cc1sc(-c2ccc(C(=O)O)c(O)c2)c2c1CCC2 [Compound 3]", "assay_system": "CYP2C19 (Homo sapiens (Human))", "test_result": "> 50 µM"}

Could you now consider this next compound?
Reported IC50 for N#Cc1sc(-c2ccc(C(=O)O)c(O)c2)c2c1CCC(F)(F)C2 [Compound 2] : what is it? > 50 µM

Reference for the values: patent US12565480B2
